Target: T1, CTLA4/His (human, UniProt P16410 36-161)
T1 construct: not shown: His tag
T1 sequence (looked up): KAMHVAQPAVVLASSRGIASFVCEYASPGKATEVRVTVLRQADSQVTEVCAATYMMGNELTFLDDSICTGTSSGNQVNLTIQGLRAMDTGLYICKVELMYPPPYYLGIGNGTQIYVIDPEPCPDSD
Assay: SPR, Biacore 8K, antibody captured on the chip, antigen as analyte, 1:1 binding model
pKd: −log10 of the molar value.
# pKd values compiled below
experimental-readout: pKd

binder: AH01695 humanized anti-human CTLA4 monoclonal antibody (human IgG1/kappa) (antibody, V domains shown, also called AH1695) VH: QVQLVQSGAEVKKPGASVKVSCKASGYTFTSYWINWVRQAPGQGLEWMGRIAPGSGTTYYNEMFTGRVTLTRDTSTSTAYIELSSLRSEDTAVYFCAIGDYFDYWGQGTMVTVSS VL: DIQLTQSPSFLSASVGDRVTITCSASKSVSYIHWYQQKPGKAPKLLIYDTSTLASGVPSRFSGSGSGTEFTLTISSLQPEDFATYYCQQRTTYPLTFGQGTKLEIK
experimental-readout: pKd
experimental-value: ≥ 10.82
--
binder: AH01679 humanized anti-human CTLA4 monoclonal antibody (human IgG1/kappa) (antibody, V domains shown, also called AH1679) VH: QVQLVQSGAEVVKPGASVKLSCKASGYTFTSYWINWVRQAPGQGLEWIGRIAPGSGTTYYNEMFTGRVTMTRDTSTSTVYMELSSLRSEDTAVYYCARGDYFDYWGQGTMVTVSS VL: DIQLTQSPSFLSASVGDRVTITCSASKSVSYIHWYQQKPGKAPKLLIYDTSTLASGVPSRFSGSGSGTEFTLTISSLQPEDFATYYCQQRTTYPLTFGQGTKLEIK
experimental-readout: pKd
experimental-value: ≥ 10.87
--
binder: AH01672 humanized anti-human CTLA4 monoclonal antibody (human IgG1/kappa) (antibody, V domains shown, also called AH1672) VH: QVQLVQSGAEVKKPGASVKVSCKASGYTFTSYWINWVKQAPGQGLEWMGRIAPGSGTTYYNEMFTGRVTMTRDTSTSTAYMELSSLRSEDTAVYYCARGDYFDYWDQGTMVTVSS VL: DIQLTQSPSFLSASVGDRVTITCSASKSVSYIHWYQQKPGKAPKLLIYDTSTLASGVPPRFSGSGSGPEFSLTISSLQPEDFATYYCQQRTTYPLTFGGGTKLEIK
experimental-readout: pKd
experimental-value: ≥ 10.84
--
binder: AH01674 humanized anti-human CTLA4 monoclonal antibody (human IgG1/kappa) (antibody, V domains shown, also called AH1674) VH: QVQLVQSGAEVKKPGASVKVSCKASGYTFTSYWINWVRQAPGQGLEWMGRIAPGSGTTYYNEMFTGRVTMTRDTSTSTAYMELSSLRSEDTAVYYCARGDYFDYWGQGTMVTVSS VL: DIQLTQSPSFLSASVGDRVTITCSASKSVSYIHWYQQKPGKAPKLLIYDTSTLASGVPPRFSGSGSGPEFTLTISSLQPEDFATYYCQQRTTYPLTFGQGTKLEIK
experimental-readout: pKd
experimental-value: ≥ 10.85
--
binder: AH01696 humanized anti-human CTLA4 monoclonal antibody (human IgG1/kappa) (antibody, V domains shown) VH: VQLVQSGAEVVKPGASVKVSCKASGYTFTSYWINWIRQAPGQGLEWIGRIAPGSGTTYYNEMFTGRVTLTRDTSTSTAYMELSSLRSEDTAVYYCARGDYFDYWDQGTMVTVSS VL: DIQLTQSPSFLSASVGDRVTITCSASKSVSYIHWFQQKPGKAPKLLIYDTSTLASGVPSRFSGSGSGTEYTLTISSLQPEDFATYYCQQRTTYPLTFGQGTKLEIK
experimental-readout: pKd
experimental-value: 10.37
--
binder: AH01704 humanized anti-human CTLA4 monoclonal antibody (human IgG1/kappa) (antibody, V domains shown) VH: QVQLVQSGAEVVKPGASVKVSCKASGYTFTSYWINWVKQAPGQGLEWMGRIAPGSGTTYYNEMFTGRVTLTRDTSTSTAYMELSSLRSEDTAVYFCARGDYFDYWGQGTMVTVSS VL: DIQLTQSPSFLSASVGDRVTITCSASKSVSYIHWYQQKPGKAPKLLIYDTSTLASGVPSRFSGSGSGTEYTLTISSLQPEDFATYYCQQRTTYPLTFGQGTKLEIK
experimental-readout: pKd
experimental-value: 10.84
--
binder: Chimeric antibody (antibody, V domains shown, also called Chimeric IgG) VH: QVHLQQSGDVLVKPGASVNLSCKASGYTFTSYWINWIKQRPGQGLEWIGRIAPGSGTTYYNEMFTGKATLTVVTSSTTAYIQLSSLSFEDSAVYFCARGDYFDYWDQGTTLTVSS VL: QIVLTQSPAIMSASPGGKVTITCSASKSVSYIHWFQQKPGTSPKLLIYDTSTLASGVPPRFSGSGSGPSYSLTISRMEAEDAATYYCQQRTTYPLTFGGGTKLEVR
experimental-readout: pKd
experimental-value: ≥ 10.64
--
binder: AH01686 humanized anti-human CTLA4 monoclonal antibody (human IgG1/kappa) (antibody, V domains shown) VH: QVQLVQSGAEVVKPGASVKVSCKASGYTFTSYWINWIKQAPGQGLEWIGRIAPGSGTTYYNEMFTGRVTLTRDTSTSTAYIELSSLRSEDTAVYFCARGDYFDYWGQGTMVTVSS VL: DIQLTQSPSFLSASVGDRVTITCSASKSVSYIHWYQQKPGKAPKLLIYDTSTLASGVPSRFSGSGSGTEFTLTISSLQPEDFATYYCQQRTTYPLTFGQGTKLEIK
experimental-readout: pKd
experimental-value: 10.41
